- Measured target: human MCP (Homo sapiens, UniProt P28074+Q99436)
- Construct: Samples of human liver and brain obtained post-mortem were used for isolation and partial purification of MCP; from tissue; host or cells: human liver and brain, post-mortem
- Experimental details: Determination of IC50 values for MCP inhibitors (chymotrypsin-like or trypsin-like activity of MCP)
- Format: biochemical
- Run parameters: Table 5, first series; enzyme incubated with inhibitor 15 minutes at 37° C. prior to substrate
pIC50: −log10 of the molar value.
Collected pIC50 values appear next to each entry.
Reported metric: pIC50

COC(=O)CCCCCCCC(=O)N[C@@H](CCCNC(N)=NS(=O)(=O)c1c(C)cc(OC)c(C)c1C)C(=O)N[C@H](C=NNC(N)=S)CC(C)C : 6.15
COC(=O)CCCCCCCC(C(=O)N[C@@H](CCCNC(N)=N[N+](=O)[O-])C(=O)N[C@H](C=O)CC(C)C)C1CCCC1 (some centres unmarked) : 8.30
COC(=O)CCCCCCCC(=O)N[C@@H](CCCNC(N)=NS(=O)(=O)c1c(C)cc(C)cc1C)C(=O)N[C@H](C=O)CC(C)C : 7.40
COC(=O)CCCCCCCC(=O)N[C@@H](CCCN=C(N)NS(=O)(=O)c1ccc(C)cc1)C(=O)N[C@H](C=O)CC(C)C : 7.12

These measurements were taken from patent US5990083A.
